Molecular target: Interleukin-23 receptor (Homo sapiens)
Sequence (Q5VWK5 whole entry): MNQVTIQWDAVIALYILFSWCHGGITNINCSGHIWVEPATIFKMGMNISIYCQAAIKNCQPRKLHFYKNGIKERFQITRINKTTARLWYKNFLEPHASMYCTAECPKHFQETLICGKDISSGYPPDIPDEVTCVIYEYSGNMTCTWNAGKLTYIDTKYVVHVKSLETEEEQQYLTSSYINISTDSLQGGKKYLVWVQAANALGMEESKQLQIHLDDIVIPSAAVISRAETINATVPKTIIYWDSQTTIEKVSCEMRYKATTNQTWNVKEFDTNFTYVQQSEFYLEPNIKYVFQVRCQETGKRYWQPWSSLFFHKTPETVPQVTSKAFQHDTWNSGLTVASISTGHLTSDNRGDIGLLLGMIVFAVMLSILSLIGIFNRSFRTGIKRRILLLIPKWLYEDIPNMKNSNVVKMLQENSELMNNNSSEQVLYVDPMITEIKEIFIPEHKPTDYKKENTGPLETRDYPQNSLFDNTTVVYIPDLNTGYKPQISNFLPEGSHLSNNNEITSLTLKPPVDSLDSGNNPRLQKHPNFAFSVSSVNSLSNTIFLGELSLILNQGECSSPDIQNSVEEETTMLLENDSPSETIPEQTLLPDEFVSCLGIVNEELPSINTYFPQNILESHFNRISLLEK
Assay: Inhibition of interleukin-23 receptor in human DB cells assessed as reduction in IL-23-stimulated STAT3 phosphorylation incubated for 30 mins by HTRF assay
Assay type: cell-based
Readout Name: IC50

Prompt line: Quote IC50 reported for COc1ccc(C[C@H](NC(=O)[C@H]2NC(=O)[C@H](CCC(N)=O)NC(=O)[C@H](Cc3c[nH]c4ccccc34)NC(=O)[C@H]([C@@H](C)O)NC(=O)[C@H](CCC(N)=O)NC(=O)[C@@H](NC(C)=O)CCSC2(C)C)C(=O)N[C@@H](Cc2ccc3ccccc3c2)C(=O)N[C@@](C)(CCCCN)C(=O)N[C@@H](CCCCNC(C)=O)C(=O)N[C@@H](CC(N)=O)C(=O)NCC(N)=O)cc1 please.
Response line: 0.025 to 0.1 µM

Prompt line: State its IC50: CC(=O)N[C@H]1CCSC[C@@H](C(=O)N[C@@H](Cc2ccc(OCCN)cc2)C(=O)N[C@@H](Cc2ccc3ccccc3c2)C(=O)NC2(C(=O)N[C@@H](CCC(=O)O)C(=O)N[C@@H](CC(N)=O)C(=O)N[C@@H](CC(N)=O)C(N)=O)CCCC2)NC(=O)[C@H](CCC(N)=O)NC(=O)[C@H](Cc2c[nH]c3ccccc23)NC(=O)[C@H]([C@@H](C)O)NC(=O)[C@H](CCC(N)=O)NC1=O
Response line: < 0.01 µM

Prompt line: Tell us which IC50 value is on record for CC(=O)NCCCC[C@H](NC(=O)[C@](C)(CCCCN)NC(=O)[C@H](Cc1ccc2ccccc2c1)NC(=O)[C@H](Cc1ccc(OCCN)cc1)NC(=O)[C@@H](NC(=O)[C@H](CCC(N)=O)NC(=O)[C@H](Cc1c[nH]c2ccccc12)NC(=O)[C@@H](NC(=O)[C@H](CCC(N)=O)NC(=O)[C@@H](NC(C)=O)C(C)(C)S)[C@@H](C)O)C(C)(C)S)C(=O)N[C@@H](CC(N)=O)C(=O)NCC(N)=O
Response line: < 0.01 µM

---

Assay: Inhibition of interleukin-23 binding to rat interleukin-23 receptor incubated for 2 hrs by competitive binding ELISA
pIC50: −log10 of the molar value. *1 amine or outer side, *2 acyl side, *3 side chain or, on linkers, in order; H or OH if unused. Where a SMILES comes first, the peptide text is derived from it. Bridges are numbered along the chain shown (N, C = ends). [ ]: non-standard residue; d: D form. Abu(4-yl) = O=C([C@H](CC[*:3])N[*:1])[*:2]; 2Nal = N[C@@H](Cc1ccc2ccccc2c1)C(=O)O; AEF = NCCOc1ccc(C[C@H](N)C(=O)O)cc1; αMeK = C[C@](N)(CCCCN)C(=O)O
Readout Name: pIC50

Prompt line: Note down pIC50 recorded for CC(=O)N[C@@H](CS)C(=O)N[C@@H](CCC(N)=O)C(=O)N[C@H](C(=O)N[C@@H](Cc1c[nH]c2ccccc12)C(=O)N[C@@H](CCC(N)=O)C(=O)N[C@@H](CS)C(=O)N[C@@H](Cc1ccc(O)cc1)C(=O)N[C@@H](Cc1c[nH]c2ccccc12)C(=O)N[C@@H](CCCNC(=N)N)C(=O)N[C@H](C(=O)N[C@@H](Cc1ccccc1)C(=O)NCC(=O)NCCOCC(=O)N[C@H](CCCCN)C(N)=O)C(C)C)[C@@H](C)O
Response line: 7.21

Prompt line: Name the recorded pIC50 of the compound listed here: CC(=O)N[C@@H](CC(C)C)C(=O)N[C@H]1CCSC[C@@H](C(=O)N[C@@H](Cc2ccc(OCCN)cc2)C(=O)N[C@@H](Cc2ccc3ccccc3c2)C(=O)N[C@@](C)(CCCCN)C(=O)N[C@@H](CCC(=O)O)C(=O)N[C@@H](CC(N)=O)C(=O)N[C@@H](CC(N)=O)C(N)=O)NC(=O)[C@H](CCC(N)=O)NC(=O)[C@H](Cc2c[nH]c3ccccc23)NC(=O)[C@H]([C@@H](C)O)NC(=O)[C@H](CCC(N)=O)NC1=O (Ac-L[Abu(4-yl)]QTWQC[AEF][2Nal][αMeK]ENN-NH2; thioether 2-7)
Response line: > 8.00

Prompt line: Return pIC50 for the following compound: CC(=O)NCCCC[C@H](NC(=O)[C@](C)(CCCCN)NC(=O)[C@H](Cc1ccc2ccccc2c1)NC(=O)[C@H](Cc1ccc(C(N)=O)cc1)NC(=O)[C@@H](NC(=O)[C@H](CCC(N)=O)NC(=O)[C@H](Cc1c[nH]c2ccccc12)NC(=O)[C@@H](NC(=O)[C@H](CCC(N)=O)NC(=O)[C@@H](NC(C)=O)C(C)(C)S)[C@@H](C)O)C(C)(C)S)C(=O)N[C@@H](CC(N)=O)C(=O)N[C@@H](CC(N)=O)C(N)=O
Response line: 7.00 to 7.60

Prompt line: Respond only with pIC50 recorded for COc1ccc(C[C@H](NC(=O)[C@@H](NC(=O)[C@H](CCC(N)=O)NC(=O)[C@H](Cc2c[nH]c3ccccc23)NC(=O)[C@@H](NC(=O)[C@H](CCC(N)=O)NC(=O)[C@@H](NC(=O)Cc2ccc(F)cc2)C(C)(C)S)[C@@H](C)O)C(C)(C)S)C(=O)N[C@@H](Cc2ccc3ccccc3c2)C(=O)N[C@@](C)(CCCCN)C(=O)N[C@@H](CCCCNC(C)=O)C(=O)N[C@@H](CC(N)=O)C(=O)NCC(N)=O)cc1
Response line: 6.00 to 7.00

Prompt line: Fill in reported pIC50 for this entry: CC(=O)NCCCC[C@H](NC(=O)[C@](C)(CC(C)C)NC(=O)[C@H](Cc1ccc2ccccc2c1)NC(=O)[C@H](Cc1ccc(OCCN)cc1)NC(=O)[C@@H](NC(=O)[C@H](CCC(N)=O)NC(=O)[C@H](Cc1c[nH]c2ccccc12)NC(=O)[C@@H](NC(=O)[C@H](CCC(N)=O)NC(=O)[C@@H](NC(C)=O)C(C)(C)S)[C@@H](C)O)C(C)(C)S)C(=O)N[C@@H](CC(N)=O)C(=O)N[C@@H](CC(N)=O)C(N)=O
Response line: > 8.00
